system: biotinyl-Phe-oxazolone; test: self-aminoacylation, catalytic enhancement (BFO) (fold over background); higher = more active; k-Seq, kA / k0A0; sequences stand for … in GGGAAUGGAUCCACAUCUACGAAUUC…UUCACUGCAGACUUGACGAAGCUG
This sample holds only a part of the variants without activity.
Binary classification by self-aminoacylation, with 9 as an inclusive lower bound for true; all other cases are false.

q: Please tell me: is the sequence CCACACUUUAAGCAAUCGCUC [Fam1B.1 aminoacylation ribozyme variant] at or over 9 in terms of self-aminoacylation?
a: false

q: One more sequence: AUUCACCUAGGUCAUAGGGUA [Fam2.2 aminoacylation ribozyme variant]
a: false

q: Input AUUAGCCUGGUCAUCGGGUGA [Fam2.1 aminoacylation ribozyme variant]
a: true

q: Repeat with AAGUUUGGCAAUAGUCGCAAG [Fam3.1 aminoacylation ribozyme variant]
a: false

q: Likewise for AUUACCCUGGUUAUCGAGUUA [Fam2.1 aminoacylation ribozyme variant] ?
a: false

q: Another sequence to look at: CCAAACUUCAAUCAAUCGGUC [Fam1B.1 aminoacylation ribozyme variant]
a: true

q: Again, but for AUUCACCUAGCUCCUCGGGUG [Fam2.2 aminoacylation ribozyme variant]
a: false

q: Repeat for the following sequence: CAAAACUUCAAGCAAUCGGUC [Fam1B.1 aminoacylation ribozyme variant]
a: true
